Attribute: TGI
System: MALME-3M melanoma
assay summary: NCI tumour cell line growth inhibition, 48 h

COc1ccc(CNc2cc(OC)cc(OC)c2)cc1 ... > 100 µM

Given the compound COC1=CC(c2ccc[nH]2)=N/C1=C\c1[nH]c(C)c(C(=O)CCC(=O)Oc2ccc3c(c2)CCC2C3CC[C@]3(C)C(=O)CC[C@@H]23)c1C (some centres undefined) , write its reported TGI.
> 100 µM

Report TGI, nothing else, for this compound: CC(C)(C)C1CCC2c3c([nH]c4ccccc34)C3C(=O)N(c4cc(Br)cc(Br)c4)C(=O)C3C2C1 (centres undefined)
> 100 µM

Report TGI, nothing else, for this compound: N#CC(c1ccc(O)cc1)N1CCN(C(C#N)c2ccc(O)cc2)CC1 (centres undefined)
> 100 µM

* * *

Parameter: TGI. Scope: all listed entries.
Test system: OVCAR-8 ovarian
assay summary: NCI tumour cell line growth inhibition, 48 h

O=C1CC(NC(=O)C(F)(F)F)c2c(Br)sc(N3CCC(c4ccccc4)CC3)c21 (stereo unspecified) ... > 100 µM

Give the reported value of TGI for this record: CN(C(=O)C1CCCCC1)c1ccccc1I(=O)=O
> 100 µM

// Input: Cc1cc(-c2ccc(C(=O)C(Cl)(Cl)Cl)[nH]2)on1 . Output its TGI only.
> 100 µM

Input C=CC1CC12C(=O)C1OC2(C)C2C(=O)c3ccccc3C(=O)C12 (stereo unspecified) , output reported TGI.
> 85.8 µM

Give TGI for C=C/C(C)=C/[C@H](C)C(=O)C[C@H](O)CC1CC(=O)NC(=O)C1
> 100 µM

* * *

Entries and their TGI values follow.
Test system: UACC-62 melanoma
assay summary: NCI tumour cell line growth inhibition, 48 h

Worked examples follow.
COC(=O)C1Cc2c(C)cccc2C1=O (centres undefined) ... > 100 µM
CN(C(=O)C1CCCCC1)c1ccccc1I(=O)=O ... > 100 µM
CCCCOC1CC2(c3ccc(OC)cc3)C(=O)c3ccccc3N2O1 (centres undefined) ... > 10 µM
COc1ccc(-n2c(CCCC(=O)O)nc3c2C(=O)c2ccccc2C3=O)cc1 ... > 100 µM
O=C(O)CSc1n[nH]c(/C=C/c2ccccc2)n1 ... > 100 µM

Specify TGI for Cc1ncc([N+](=O)[O-])n1CCN(C)CCCCn1ccnc1[N+](=O)[O-] , system UACC-62 melanoma.
> 100 µM

* * *

System: DLD-1 colon
assay summary: NCI tumour cell line growth inhibition, 48 h
Where a SMILES comes first, the peptide text is derived from it. [ ]: non-standard residue; d: D form. The star is where a group is joined. ξ: configuration not given here. X16 = COC1=CC(=O)N(C(=O)C(O*)C(C)C)C1Cc1ccccc1; ξNMe2Val = CC(C)C(C(=O)*)N(C)C; NMeV = CN[CH](C(=O)O)C(C)C
readout label: TGI

Reference set (7 entries):
Oc1c(Cl)c2nccnc2c2ccccc12 ... > 100 µM
CC(NC(=O)c1ccccc1)C(=O)N(Cc1ccccc1)Cc1ccccc1 (stereo not drawn) ... > 100 µM
N=C(N)/N=C(/C=C/c1ccccc1)CC1OC(=O)c2ccccc21 (stereo not drawn) ... > 100 µM
CN(C)CCC1(C2=CCCC2)CC/C(=C\c2ccc3c(c2)OCO3)C1=O (stereo not drawn) ... 38.3 µM
C=C1CC2CC[C@@]34C[C@@H]5O[C@@H]6C(O[C@H]7CC[C@H](CC(=O)OC8[C@@H](C)C9OC%10C[C@]%11(C[C@@H]%12O[C@@]%13(C[C@@H](C)[C@@H]%12O%11)C[C@H](C)[C@@H]%11OC%12CC(C(O)CO)OC%12C[C@@H]%11O%13)OC%10CC9O[C@H]8C[C@H]8O[C@@H](CC[C@@H]1O2)C[C@@H](C)C8=C)O[C@@H]7[C@@H]6O3)C5O4 (stereo partly drawn) ... > 1.48 µM
OCC(O)COc1ccc(Br)cc1 (stereo not drawn) ... > 100 µM
CN(C)CCNC(=O)c1ccc2ccc3cccnc3c2n1 ... > 84.4 µM

Moving on to the next molecule.
For the molecule COC1=CC(=O)N(C(=O)C(OC(=O)C2CCCN2C(=O)C2CCCN2C(=O)C(C(C)C)N(C)C(=O)C(NC(=O)C(C(C)C)N(C)C)C(C)C)C(C)C)C1Cc1ccccc1 (stereo not drawn) (ξNMe2Val-V[NMeV]PP-X16; configuration not given here) , give its measured TGI value.
> 4 µM
